Target Desc: UniProt P43490
Assay Procedure: NAMPT enzyme assay (TR-FRET/HTRF, BodiPY ligand, anti 6His-Tb)
Assay type: binding
Setup Conditions: NAMPT inhibition at compound concentration 1 μM; read-out: Percent Inhibition
Quantity Name: inhibition at 1 µM (%)
Report as a plain number; the unit % is understood.

Q: # input compound: `O=C(NCCCc1ncc[nH]1)c1ccc2nc(-c3ccc(F)cc3)c(-c3cccc(Cl)c3)nc2c1` ; wanted: its inhibition at 1 µM
A: 97

Q: # input compound: `COc1ccc(F)c(-c2nc3cc(C(=O)NCCCc4ncc[nH]4)ccc3nc2-c2ccc(F)cc2)c1` ; wanted: its inhibition at 1 µM
A: 98

Q: # input compound: `O=C(NCCCc1ncc[nH]1)c1ccc2nc(OCC3CC3)c(-c3ccc(F)cc3)nc2c1` ; wanted: its inhibition at 1 µM
A: 95

Q: # input compound: `C[C@@H]1CN(c2nc3ccc(C(=O)NCCCc4ccc(N)nc4)cc3nc2-c2ccc(F)cc2)C[C@H](C)O1` ; wanted: its inhibition at 1 µM
A: 96

Q: # input compound: `O=C(NCCCc1cn[nH]c1)c1ccc2nc(-c3ccc(F)cc3)c(-c3ccc(F)cc3)nc2c1` ; wanted: its inhibition at 1 µM
A: 73

Q: # input compound: `O=C(NCCCc1ncc[nH]1)c1ccc2nc(OCC3CCCC3)c(-c3ccc(F)cc3)nc2c1` ; wanted: its inhibition at 1 µM
A: 93

Q: # input compound: `COc1cc(-c2nc3cc(C(=O)NCCCc4nnc[nH]4)ccc3nc2-c2ccc(F)cc2)c(F)cn1` ; wanted: its inhibition at 1 µM
A: 75

Q: # input compound: `COc1cc(-c2nc3cc(C(=O)NCCCc4ncc[nH]4)ccc3nc2-c2ccc(F)cc2)c(F)cn1` ; wanted: its inhibition at 1 µM
A: 95

Q: # input compound: `Cc1ccc(F)c(-c2nc3cc(C(=O)NCCCc4ncc[nH]4)ccc3nc2-c2ccc(F)cc2)c1` ; wanted: its inhibition at 1 µM
A: 97

Q: # input compound: `Cc1ccc(Cl)cc1-c1nc2cc(C(=O)NCCCc3ncc[nH]3)ccc2nc1-c1ccc(F)cc1` ; wanted: its inhibition at 1 µM
A: 98

Q: # input compound: `COc1cc(-c2nc3cc(C(=O)NCCCc4nccn4C)ccc3nc2-c2ccc(F)cc2)c(F)cn1` ; wanted: its inhibition at 1 µM
A: 97

Q: # input compound: `CC(C)Oc1nc2ccc(C(=O)NCCCc3ncc[nH]3)cc2nc1-c1cccc(SC(F)(F)F)c1` ; wanted: its inhibition at 1 µM
A: 78

Q: # input compound: CN1CCCC(Oc2nc3ccc(C(=O)NCCCc4ncc[nH]4)cc3nc2-c2ccc(F)cc2)C1 (stereo not drawn) ; wanted: its inhibition at 1 µM
A: 88

Q: # input compound: `Nc1ccc(CCCNC(=O)c2ccc3nc(N4CCCCC4)c(-c4ccc(F)cc4)nc3c2)cn1` ; wanted: its inhibition at 1 µM
A: 83

Q: # input compound: `O=C(NCCCc1ncc[nH]1)c1ccc2nc(OCc3nccs3)c(-c3ccc(F)cc3)nc2c1` ; wanted: its inhibition at 1 µM
A: 98

Q: # input compound: `O=C(NCCCc1ncc[nH]1)c1ccc2nc(N3CCCC3)c(-c3ccc(F)cc3)nc2c1` ; wanted: its inhibition at 1 µM
A: 98

Q: # input compound: `CC(C)Oc1nc2ccc(C(=O)NCc3ccc4nccn4c3)cc2nc1-c1ccc(F)cc1` ; wanted: its inhibition at 1 µM
A: 75

Q: # input compound: `C#Cc1ccc(-c2nc3cc(C(=O)NCCCc4ncc[nH]4)ccc3nc2-c2ccc(F)cc2)cc1` ; wanted: its inhibition at 1 µM
A: 76

Q: # input compound: `O=C(NCCCc1ncc[nH]1)c1ccc2nc(OCc3cccc(Cl)c3)c(-c3ccc(F)cc3)nc2c1` ; wanted: its inhibition at 1 µM
A: 84

Q: # input compound: `COc1cc(-c2nc3cc(C(=O)NCCCc4ncc[nH]4)ccc3nc2-c2ccc(F)cc2)ccc1F` ; wanted: its inhibition at 1 µM
A: 98

Q: # input compound: `Cc1ccc(-c2nc3cc(C(=O)NCCCc4ncc[nH]4)ccc3nc2-c2ccc(F)cc2)cn1` ; wanted: its inhibition at 1 µM
A: 78

Q: # input compound: `CC(C)Oc1cc(-c2nc3cc(C(=O)NCCCc4ncc[nH]4)ccc3nc2-c2ccc(F)cc2)c(F)cn1` ; wanted: its inhibition at 1 µM
A: 86

Q: # input compound: `Cc1ccc(C)c(-c2nc3cc(C(=O)NCCCc4ncc[nH]4)ccc3nc2-c2ccc(F)cc2)c1` ; wanted: its inhibition at 1 µM
A: 93

Q: # input compound: `O=C(NCCCc1ncc[nH]1)c1ccc2nc(OCc3ccccn3)c(-c3ccc(F)cc3)nc2c1` ; wanted: its inhibition at 1 µM
A: 98

Q: # input compound: `O=C(NCCCc1ncc[nH]1)c1ccc2nc(OCc3cccnc3)c(-c3ccc(F)cc3)nc2c1` ; wanted: its inhibition at 1 µM
A: 98

Q: # input compound: `O=C(NCc1cn2cccnc2n1)c1ccc2nc(-c3ccc(F)cc3)c(-c3ccc(F)cc3)nc2c1` ; wanted: its inhibition at 1 µM
A: 85

---

Target Desc: hNAMPT protein (Homo sapiens (Human))
Sequence (P43490 whole entry): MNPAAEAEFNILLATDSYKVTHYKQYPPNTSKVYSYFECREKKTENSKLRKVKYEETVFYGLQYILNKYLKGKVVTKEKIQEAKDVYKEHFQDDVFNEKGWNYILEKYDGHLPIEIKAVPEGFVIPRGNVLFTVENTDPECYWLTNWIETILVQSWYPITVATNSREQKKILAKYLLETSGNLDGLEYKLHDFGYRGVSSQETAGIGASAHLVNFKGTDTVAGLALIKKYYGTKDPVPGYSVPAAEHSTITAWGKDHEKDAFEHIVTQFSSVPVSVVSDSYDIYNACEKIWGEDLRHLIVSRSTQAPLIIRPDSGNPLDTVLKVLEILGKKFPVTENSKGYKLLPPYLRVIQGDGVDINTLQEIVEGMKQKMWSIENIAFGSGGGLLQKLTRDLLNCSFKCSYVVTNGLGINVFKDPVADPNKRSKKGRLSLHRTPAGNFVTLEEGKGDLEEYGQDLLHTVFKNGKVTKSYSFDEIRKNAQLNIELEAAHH
Assay Procedure: NAMPT enzyme assay (TR-FRET/HTRF, BodiPY ligand, anti 6His-Tb)
Type: binding
Setup Conditions: compound concentration 1 μM; read-out: Percent Inhibition
Please go through the items and note down their inhibition at 1 µM.
Report as a plain number; the unit % is understood.

Q: # input molecule: Cn1cncc1CCNC(=O)c1ccc2nc(-c3ccc(F)cc3)c(-c3ccc(F)cc3)nc2c1 [Compound I-53] ; wanted: its inhibition at 1 µM
A: 77

Q: # input molecule: O=C(NCCCn1ccnc1)c1ccc2nc(-c3cccs3)c(-c3ccccc3)nc2c1 [Compound I-247] ; wanted: its inhibition at 1 µM
A: 58

Q: # input molecule: O=C(NCCCc1ncc[nH]1)c1ccc2nc(-c3ccc(F)cc3)c(-c3cc(C(F)(F)F)ccc3Cl)nc2c1 [Compound I-381] ; wanted: its inhibition at 1 µM
A: 96

Q: # input molecule: Cn1ccc(-c2nc3cc(C(=O)NCCCn4ccnc4)ccc3nc2-c2ccccc2)n1 [Compound I-215] ; wanted: its inhibition at 1 µM
A: 15

Q: # input molecule: Cc1ccc(CCCNC(=O)c2ccc3nc(N4CCCCC4)c(-c4ccc(F)cc4)nc3c2)cn1 [Compound I-185] ; wanted: its inhibition at 1 µM
A: 57

Q: # input molecule: O=C(NCCCc1ncc[nH]1)c1ccc2nc(-c3ccc(F)cc3)c(-c3cc(F)c(F)cc3F)nc2c1 [Compound I-337] ; wanted: its inhibition at 1 µM
A: 88

Q: # input molecule: CC(=O)c1ccc(-c2nc3cc(C(=O)NCCCc4ncc[nH]4)ccc3nc2-c2ccc(F)cc2)s1 [Compound I-370] ; wanted: its inhibition at 1 µM
A: 64

---

Target Desc: hNAMPT protein (Homo sapiens (Human))
Assay Procedure: NAMPT enzyme assay (TR-FRET/HTRF, BodiPY ligand, anti 6His-Tb)
Format: binding
Setup Conditions: NAMPT inhibition at compound concentration 1 μM; read-out: Percent Inhibition
Please go through the items and note down their inhibition at 1 µM.
Your reply should be a number followed by the unit it is expressed in.

Q: # input compound: `N#Cc1ccc(F)c(-c2nc3cc(C(=O)NCCCc4ncc[nH]4)ccc3nc2-c2ccc(F)cc2)c1` ; wanted: its inhibition at 1 µM
A: 99%

Q: # input compound: O=C(NCCCc1ncc[nH]1)c1ccc2nc(OC3CCCNC3)c(-c3ccc(F)cc3)nc2c1 (stereo not shown) ; wanted: its inhibition at 1 µM
A: 98%

Q: # input compound: `O=C(NCCCc1ncc[nH]1)c1ccc2nc(OCc3ncc[nH]3)c(-c3ccc(F)cc3)nc2c1` ; wanted: its inhibition at 1 µM
A: 47%

Q: # input compound: `O=C(NCCCc1ncc[nH]1)c1ccc2nc(-c3ccc(F)cc3)c(-c3ccc(Cl)c(F)c3)nc2c1` ; wanted: its inhibition at 1 µM
A: 90%

Q: # input compound: `O=C(NCCCc1ncc[nH]1)c1ccc2nc(O[C@H]3CCOC3)c(-c3ccc(F)cc3)nc2c1` ; wanted: its inhibition at 1 µM
A: 99%

Q: # input compound: `O=C(NCCCc1ncc[nH]1)c1ccc2nc(-c3ccc(F)cc3)c(-c3cc(Cl)cnc3F)nc2c1` ; wanted: its inhibition at 1 µM
A: 98%

Q: # input compound: `O=C(NCCCc1ncc[nH]1)c1ccc2nc(-c3ccc(F)cc3)c(-c3ccc4c(c3)OCO4)nc2c1` ; wanted: its inhibition at 1 µM
A: 86%

---

Target Desc: UniProtKB P43490
Assay Procedure: NAMPT enzyme assay (TR-FRET/HTRF, BodiPY ligand, anti 6His-Tb)
Format: binding
Setup Conditions: NAMPT IC50 range class; read-out: IC50
pIC50: −log10 of the molar value.
Please go through the items and note down their pIC50.

Q: # input compound: `O=C(NCCCn1ccnc1)c1ccc2nc(-c3ccccc3)c(N3CCC4(COC4)C3)nc2c1` ; wanted: its pIC50
A: 5.00 to 5.70

Q: # input compound: `O=C(NCCCn1ccnc1)c1ccc2nc(N3CCS(=O)(=O)CC3)c(-c3ccccc3)nc2c1` ; wanted: its pIC50
A: 5.70 to 6.00

Q: # input compound: `CC(C)Oc1nc2ccc(C(=O)NCCCc3cn[nH]c3)cc2nc1-c1ccc(F)cc1` ; wanted: its pIC50
A: 6.00 to 6.30

Q: # input compound: `Cc1nc2ccc(C(=O)NCCCn3ccnc3)cc2nc1-c1ccccc1` ; wanted: its pIC50
A: 5.70 to 6.00
